All figures here come from patent US20230265116A1.

Here the recorded DC50 is given for each entry.
Target: EGFR (HCC827 cells) (Homo sapiens, UniProt P00533, DEL746-750)
Construct: endogenous in cells; host or cells: HCC827
Sequence (P00533 with tags, fused parts or gaps DEL746-750): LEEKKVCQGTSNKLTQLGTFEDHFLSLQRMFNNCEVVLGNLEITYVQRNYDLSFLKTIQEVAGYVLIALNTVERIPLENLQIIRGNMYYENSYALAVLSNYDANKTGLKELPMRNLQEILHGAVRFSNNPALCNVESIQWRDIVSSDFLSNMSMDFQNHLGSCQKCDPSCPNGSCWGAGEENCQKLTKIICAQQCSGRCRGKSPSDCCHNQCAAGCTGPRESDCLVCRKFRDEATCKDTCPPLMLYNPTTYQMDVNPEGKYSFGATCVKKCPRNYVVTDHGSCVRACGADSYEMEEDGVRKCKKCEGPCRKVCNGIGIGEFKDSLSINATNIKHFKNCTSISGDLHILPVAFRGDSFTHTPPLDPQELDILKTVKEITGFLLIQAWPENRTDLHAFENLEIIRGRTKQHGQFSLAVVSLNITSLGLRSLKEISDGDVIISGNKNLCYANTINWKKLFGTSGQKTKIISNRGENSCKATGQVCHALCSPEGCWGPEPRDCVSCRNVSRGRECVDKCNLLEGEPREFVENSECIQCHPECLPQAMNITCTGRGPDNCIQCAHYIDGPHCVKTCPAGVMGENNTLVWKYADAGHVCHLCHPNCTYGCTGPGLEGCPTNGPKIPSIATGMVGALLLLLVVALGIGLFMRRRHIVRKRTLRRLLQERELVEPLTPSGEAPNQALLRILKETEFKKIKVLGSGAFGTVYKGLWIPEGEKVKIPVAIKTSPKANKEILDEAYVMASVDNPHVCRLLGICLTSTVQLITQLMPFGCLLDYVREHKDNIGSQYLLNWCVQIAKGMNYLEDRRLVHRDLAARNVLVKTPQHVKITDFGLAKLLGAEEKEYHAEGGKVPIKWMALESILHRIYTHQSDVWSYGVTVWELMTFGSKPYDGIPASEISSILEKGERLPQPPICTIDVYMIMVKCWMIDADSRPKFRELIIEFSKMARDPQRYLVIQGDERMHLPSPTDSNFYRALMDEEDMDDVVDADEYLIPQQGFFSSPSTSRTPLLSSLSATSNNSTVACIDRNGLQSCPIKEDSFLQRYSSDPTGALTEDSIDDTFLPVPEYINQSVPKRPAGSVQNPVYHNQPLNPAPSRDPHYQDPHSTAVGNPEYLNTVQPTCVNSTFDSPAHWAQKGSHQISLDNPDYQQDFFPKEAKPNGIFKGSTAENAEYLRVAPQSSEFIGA
Test: EGFR degradation HTRF assay, HCC827 cells
Assay type: cell-based
Conditions: HCC827, 16h treatment
Where a name gives a salt, the structure may show the parent alone.

| Compound | DC50 |
| --- | --- |
| CCc1cc(Nc2ncc(Br)c(Nc3ccc4nccnc4c3P(C)(C)=O)n2)c(OC)cc1N1CCC(N2CCN(C(=O)C3CCN(c4ccc5c(c4)C(C)(C)C(=O)N5C4CCC(=O)NC4=O)CC3)CC2)CC1 (centres unmarked) | 3.21 nM |
| CCc1cc(Nc2ncc(Br)c(Nc3ccc4nccnc4c3P(C)(C)=O)n2)c(OC)cc1N1CCC(N2CCN(CCC3CN(c4ccc5c(c4)C(=O)N(C4CCC(=O)NC4=O)C5=O)C3)CC2)CC1 (centres unmarked) | 5.45 nM |
| COc1cc(N2CCC(N3CCN(CCC4CCN(c5ccc(C6CCC(=O)NC6=O)cc5)CC4)CC3)CC2)ccc1Nc1ncc(Cl)c(Nc2ccccc2P(C)(C)=O)n1 (centres unmarked) | 7.06 nM |
| COc1cc(N2CCC(N3CCN(CCc4ccc(C5CCC(=O)NC5=O)cc4)CC3)CC2)ccc1Nc1ncc(Cl)c(Nc2ccccc2P(C)(C)=O)n1 (centres unmarked) | 17.7 nM |
| CCc1cc(Nc2ncc(Br)c(Nc3ccc4nccnc4c3P(C)(C)=O)n2)c(OC)cc1N1CCC(N2CCN(C(=O)[C@H]3C[C@H](N(C)c4ccc(C5CCC(=O)NC5=O)cc4)C3)CC2)CC1 (some centres unmarked) | 4.59 nM |
| CCc1cc(Nc2ncc(Br)c(Nc3ccc4nccnc4c3P(C)(C)=O)n2)c(OC)cc1N1CCC(N2CCN(CCOc3ccc(C4CCC(=O)NC4=O)cc3)CC2)CC1 (centres unmarked) [Example 17, formate] | 25.4 nM |
| CCc1cc(Nc2ncc(Br)c(Nc3ccc4nccnc4c3P(C)(C)=O)n2)c(OC)cc1N1CCC(N2CCN(C[C@@H]3CCN(c4ccc(C5CCC(=O)NC5=O)cc4)C3)CC2)CC1 (some centres unmarked) | 5.15 nM |
| COc1cc(N2CCN(CCc3ccc(C4CCC(=O)NC4=O)cc3)CC2)ccc1Nc1ncc(Cl)c(Nc2ccccc2N(C)S(C)(=O)=O)n1 (centres unmarked) | 39.1 nM |
| COc1cc(N2CCC(N(C)CCOc3ccc(C4CCC(=O)NC4=O)cc3)CC2)c(C)cc1Nc1ncc(Br)c(Nc2ccc3nccnc3c2P(C)(C)=O)n1 (centres unmarked) | 30.5 nM |
| CCc1cc(Nc2ncc(Br)c(Nc3ccc4nccnc4c3P(C)(C)=O)n2)c(OC)cc1N1CCC(N2CCN(CCc3ccc(C4CCC(=O)NC4=O)c(F)c3F)CC2)CC1 (centres unmarked) | 12.3 nM |
| CCc1cc(Nc2ncc(Br)c(Nc3ccc4nccnc4c3P(C)(C)=O)n2)c(OC)cc1N1CCC(N2CCN(CCc3ccc(C4CCC(=O)NC4=O)c(Cl)c3)CC2)CC1 (centres unmarked) | 11.1 nM |

----------
Target: EGFR L858R/T790M/C797S (BaF3-LTC cells) (Homo sapiens, UniProt P00533, C797S/L858R/T790M)
Construct: expressed in transfected cells; host or cells: BaF3
Sequence (P00533 25-1210 T790M/C797S/L858R): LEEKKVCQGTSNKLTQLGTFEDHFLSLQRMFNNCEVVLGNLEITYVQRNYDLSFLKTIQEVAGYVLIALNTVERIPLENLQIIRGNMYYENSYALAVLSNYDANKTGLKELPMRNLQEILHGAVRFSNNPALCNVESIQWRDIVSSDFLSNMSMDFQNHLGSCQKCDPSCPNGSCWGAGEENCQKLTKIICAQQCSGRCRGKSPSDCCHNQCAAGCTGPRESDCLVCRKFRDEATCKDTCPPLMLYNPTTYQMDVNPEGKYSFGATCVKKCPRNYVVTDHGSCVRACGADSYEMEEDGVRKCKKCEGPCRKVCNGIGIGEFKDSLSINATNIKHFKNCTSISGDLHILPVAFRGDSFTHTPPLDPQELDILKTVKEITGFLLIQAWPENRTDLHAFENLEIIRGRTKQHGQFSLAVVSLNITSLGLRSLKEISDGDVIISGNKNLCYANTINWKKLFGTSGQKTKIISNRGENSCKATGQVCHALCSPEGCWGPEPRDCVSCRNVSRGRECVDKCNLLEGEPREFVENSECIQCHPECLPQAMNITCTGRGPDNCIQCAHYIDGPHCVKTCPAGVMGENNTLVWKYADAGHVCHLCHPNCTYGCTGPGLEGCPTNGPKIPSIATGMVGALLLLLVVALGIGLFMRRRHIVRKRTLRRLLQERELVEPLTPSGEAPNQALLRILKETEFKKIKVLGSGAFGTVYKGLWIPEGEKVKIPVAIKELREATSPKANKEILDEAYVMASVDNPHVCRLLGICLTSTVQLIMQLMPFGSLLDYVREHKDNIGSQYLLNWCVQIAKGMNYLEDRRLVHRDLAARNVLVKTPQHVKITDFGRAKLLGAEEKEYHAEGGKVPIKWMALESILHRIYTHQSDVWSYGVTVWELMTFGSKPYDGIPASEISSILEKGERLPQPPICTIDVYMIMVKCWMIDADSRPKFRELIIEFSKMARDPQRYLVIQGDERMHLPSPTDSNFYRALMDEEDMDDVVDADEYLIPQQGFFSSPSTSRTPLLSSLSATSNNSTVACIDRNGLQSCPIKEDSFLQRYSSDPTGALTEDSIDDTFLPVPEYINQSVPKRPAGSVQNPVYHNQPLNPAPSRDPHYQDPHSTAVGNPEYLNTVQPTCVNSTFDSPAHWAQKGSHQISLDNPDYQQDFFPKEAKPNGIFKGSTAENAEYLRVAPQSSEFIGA
Assay: EGFR degradation HTRF assay, BaF3-LTC cells
Format: cell-based
Details: BaF3-LTC, 16h treatment; read-out: LTC DC50
Note to self: use t only for DC50 readings below 20 nM; a reading exactly at 20 nM still gets f.

| Molecule | Qualitative label |
| --- | --- |
| CCc1cc(Nc2ncc(Br)c(Nc3ccc4nccnc4c3P(C)(C)=O)n2)c(OC)cc1N1CCC(N2CCN(C(=O)[C@H]3C[C@H](N(C)c4ccc5c(c4)C(=O)N(C4CCC(=O)NC4=O)C5=O)C3)CC2)CC1 (stereo partly shown) [Example 236] | f |
| CCc1cc(Nc2ncc(Br)c(Nc3ccc4ncn(C)c(=O)c4c3P(C)(C)=O)n2)c(OC)cc1N1CCC(N2CCN(CCc3cccc4c3n(C)c(=O)n4C3CCC(=O)NC3=O)CC2)CC1 (stereo not shown) [Example 698] | t |
| CCc1cc(Nc2ncc(Br)c(Nc3ccc4ncsc4c3P(C)(C)=O)n2)c(OC)cc1N1CCC(N2CCN(CCc3cc(F)c(C4CCC(=O)NC4=O)c(F)c3)CC2)CC1 (stereo not shown) [Example 714] | t |
| COc1cc(N2CCC(N3CCN(CCc4ccc(C5CCC(=O)NC5=O)c(F)c4)CC3)CC2)c(C)cc1Nc1ncc(Br)c(Nc2ccc3nccnc3c2P(C)(C)=O)n1 (stereo not shown) [Example 214] | f |
| CCc1cc(Nc2ncc(Br)c(Nc3ccc4ncccc4c3P(C)(C)=O)n2)c(OC)cc1N1CCC(N2CCN(CCC3CCN(c4cc(F)c(C5CCC(=O)NC5=O)c(F)c4)CC3)CC2)CC1 (stereo not shown) [Example 202] | t |
| CCc1cc(Nc2ncc(Br)c(Nc3ccc4nccnc4c3P(C)(C)=O)n2)c(OC)cc1N1CCC(N2CCN(CCc3cccc4c3n(C)c(=O)n4C3CCC(=O)NC3=O)CC2)CC1 (stereo not shown) [Example 318] | t |
| CCc1cc(Nc2ncc(Br)c(Nc3ccc4nccnc4c3P(C)(C)=O)n2)c(OC)cc1N1CCC(N2CCN(C(=O)CC3CN(c4ccc5c(c4)C(=O)N(C4CCC(=O)NC4=O)C5=O)C3)CC2)CC1 (stereo not shown) [Example 222] | f |
| CCc1cc(Nc2ncc(Br)c(Nc3ccc4nc(C)ccc4c3P(C)(C)=O)n2)c(OC)cc1N1CCC(N2CCN(CC3CCN(c4cc(F)c(NC5CCC(=O)NC5=O)c(F)c4)CC3)CC2)CC1 (stereo not shown) [Example 718] | f |
| CCc1cc(Nc2ncc(Br)c(Nc3ccc4ncn(C)c(=O)c4c3P(C)(C)=O)n2)c(OC)cc1N1CCC(N2CCN(C(=O)C3CCN(c4cc(F)c(C5CCC(=O)NC5=O)c(F)c4)C3)CC2)CC1 (stereo not shown) [Example 701] | t |
| CCc1cc(Nc2ncc(Br)c(Nc3ccc4nc(C)ccc4c3P(C)(C)=O)n2)c(OC)cc1N1CCC(N2CCN(C(=O)C34CCC(Nc5cc(F)c(C6CCC(=O)NC6=O)c(F)c5)(CC3)C4)CC2)CC1 (stereo not shown) [Example 699] | t |

----------
Test system: EGFR Del19/T790M/C797S (H1975-clone #28)
Experiment: EGFR degradation HTRF assay, H1975-clone #28 DTC cells
Assay type: cell-based
Settings: H1975 # 28 DTC cells; maximum percentage of inhibition (degradation)

| Compound | Assay target | Endpoint unit | Dmax (%) H1975 # 28 DTC |
| --- | --- | --- | --- |
| CCc1ncc2c(P(C)(C)=O)c(Nc3nc(Nc4cc(CC)c(N5CCC(N6CCN(CCc7cc(F)c([C@H]8CCC(=O)NC8=O)c(F)c7)CC6)CC5)cc4OC)ncc3Br)ccc2n1 [Example 589] | EGFR Del19/T790M/C797S (H1975-clone #28) | % | 86.23 |
| CCOc1cc(N2CCC(N3CCN(C(=O)CN4CCN(c5cc(F)c([C@H]6CCC(=O)NC6=O)c(F)c5)CC4)CC3)CC2)c(CC)cc1Nc1ncc(Br)c(Nc2ccc3c(=O)n(CC)ncc3c2P(C)(C)=O)n1 [Example 639] | EGFR Del19/T790M/C797S (H1975-clone #28) | % | 86.93 |
| CCc1ccc2c(P(C)(C)=O)c(Nc3nc(Nc4cc(CC)c(N5CCC(N6CCN(CC7CN(c8cccc9c8oc(=O)n9C8CCC(=O)NC8=O)C7)CC6)CC5)cc4OC)ncc3Br)ccc2n1 (stereo not shown) [Example 448] | EGFR Del19/T790M/C797S (H1975-clone #28) | % | 83.19 |
| CCOc1cc(N2CCC(N3CCN(CCc4cc(F)c([C@H]5CCC(=O)NC5=O)c(F)c4)CC3)CC2)c(CC)cc1Nc1ncc(Cl)c(Nc2cc(F)c3nc(CC)ccc3c2P(C)(C)=O)n1 [Example 730] | EGFR Del19/T790M/C797S (H1975-clone #28) | % | 81.41 |
| CCc1ccc2c(P(C)(C)=O)c(Nc3nc(Nc4cc(CC)c(N5CCC(N6CCN(C(=O)[C@H]7CN(c8cc(F)c([C@H]9CCC(=O)NC9=O)c(F)c8)CC7(C)C)CC6)CC5)cc4OC)ncc3Br)ccc2n1 [Example 754] | EGFR Del19/T790M/C797S (H1975-clone #28) | % | 86.62 |
| CCc1cc(Nc2ncc(Br)c(Nc3ccc4nc(C)sc4c3P(C)(C)=O)n2)c(OC)cc1N1CCC(N2CCN(CCc3cc(F)c([C@H]4CCC(=O)NC4=O)c(F)c3)CC2)CC1 [Example 661] | EGFR Del19/T790M/C797S (H1975-clone #28) | % | 87.94 |
| CCOc1cc(N2CCC(N3CCN(CCCc4cc(OC)cc5c4oc(=O)n5C4CCC(=O)NC4=O)CC3)CC2)c(CC)cc1Nc1ncc(Br)c(Nc2ccc3nc(CC)ccc3c2P(C)(C)=O)n1 (stereo not shown) [Example 597] | EGFR Del19/T790M/C797S (H1975-clone #28) | % | 75.93 |
| CCc1ccc2c(P(C)(C)=O)c(Nc3nc(Nc4cc(CC)c(N5CCC(N6CCN(CCc7ccc8c(oc(=O)n8C8CCC(=O)NC8=O)c7F)CC6)CC5)cc4OC)ncc3Br)ccc2n1 (stereo not shown) [Example 458] | EGFR Del19/T790M/C797S (H1975-clone #28) | % | 83.62 |
| CCc1ccc2c(P(C)(C)=O)c(Nc3nc(Nc4cc(C)c(N5CCC(N6CCN(CCc7ccc8c(c7)oc(=O)n8C7CCC(=O)NC7=O)CC6)CC5)cc4OC4CC4)ncc3Br)ccc2n1 (stereo not shown) [Example 568] | EGFR Del19/T790M/C797S (H1975-clone #28) | % | 91.62 |
| CCc1ccc2c(P(C)(C)=O)c(Nc3nc(Nc4cc(CC)c(N5CCC(N6CCN(C(=O)C7CN(c8cc(F)c([C@H]9CCC(=O)NC9=O)c(F)c8)C7)CC6)CC5)cc4OC)ncc3Br)ccc2n1 [Example 755] | EGFR Del19/T790M/C797S (H1975-clone #28) | % | 84.62 |
